Target: T1, SARS-CoV-2 Spike S1 domain D614G (SARS-CoV-2, UniProt P0DTC2 16-685)
T1 construct: domain: S1
Test: HTRF, soluble S1 construct
# fold over background listing for each entry below
Give the value, in units of fold over background, as a plain number.

{"binder": "PR197_00647 (antibody, V domains shown) VH: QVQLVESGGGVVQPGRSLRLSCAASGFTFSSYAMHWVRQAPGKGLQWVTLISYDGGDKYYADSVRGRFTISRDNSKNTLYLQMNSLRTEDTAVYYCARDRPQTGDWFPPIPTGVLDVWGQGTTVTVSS VL: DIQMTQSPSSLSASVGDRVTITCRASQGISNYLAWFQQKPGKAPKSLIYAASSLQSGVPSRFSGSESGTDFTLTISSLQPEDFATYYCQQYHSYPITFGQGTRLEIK", "endpoint_result": 8.3}
{"binder": "PR194_00292 (antibody, V domains shown) VH: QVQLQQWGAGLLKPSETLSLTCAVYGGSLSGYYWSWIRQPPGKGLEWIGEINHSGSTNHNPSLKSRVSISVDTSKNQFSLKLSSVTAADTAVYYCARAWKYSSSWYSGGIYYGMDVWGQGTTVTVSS VL: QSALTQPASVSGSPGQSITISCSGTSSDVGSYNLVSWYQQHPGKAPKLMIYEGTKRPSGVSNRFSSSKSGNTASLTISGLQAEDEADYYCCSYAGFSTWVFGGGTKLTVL", "endpoint_result": 1.06}

Could you now look at the following binder, please?
Query block: Please report the recorded fold over background for PR199_00255 (antibody, V domains shown, also called IMM20279; PR190_00255) VH: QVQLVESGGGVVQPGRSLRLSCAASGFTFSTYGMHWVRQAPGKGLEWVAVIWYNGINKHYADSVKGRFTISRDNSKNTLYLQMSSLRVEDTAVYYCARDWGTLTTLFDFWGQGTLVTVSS VL: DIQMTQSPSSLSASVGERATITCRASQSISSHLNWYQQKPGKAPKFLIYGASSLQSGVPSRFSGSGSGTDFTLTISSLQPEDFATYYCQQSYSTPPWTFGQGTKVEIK .
Result block: 11.2
